# Test system: UO-31 renal
# testSummary: NCI-60 one-dose screen, 48 h
# conditionSet: 10 µM unless noted
This is part of a sample that, as a whole, favours compounds with a hit. Of some 83,000 tested, about 20% had one in any assay. Activity calls are given as the source filed them. How the source made its calls: active means growth percent below 10; inactive means the rest.
Write down the outcome that applies. Available outcomes: active, inactive

Below are worked cases with known answers.
# compound, testedTarget, group
measured = [
    ("COc1cc(NCc2ccccc2O)c2ncccc2c1", "UO-31 renal", "inactive"),
    ("O=C(Nc1ccc(CN2CCOCC2)c(C(F)(F)F)c1)c1nc2ccc3[nH]ncc3c2c2c1CCCC2", "UO-31 renal", "inactive"),
]

Q: Write down the call the test reported for this compound. Item: CCOc1cc(NC(=O)c2ccccc2)c(OCC)cc1N
Result: inactive

Q: Recorded test call requested for Cc1ccc(S(=O)(=O)N/N=C2\CC3CCC2(C)C3(C)C)cc1 (stereo not given)
Result: inactive

Q: Recorded test call requested for O=c1[nH]c(CN2CCN(c3cccc(Cl)c3)CC2)nc2cc(Cl)ccc12
Result: active

---

# System: RPMI-8226 leukemia
# testSummary: NCI-60 one-dose screen, 48 h
# conditionSet: 10 µM unless noted
The panel holds about 83,000 compounds, 20% with a hit somewhere; the sample as a whole holds those more often. The source made the active and inactive calls. Rule for the calls: active = growth percent below 10; inactive = the rest.
Give one outcome, nothing more. List: label 1 for active, label 0 for inactive

Observe how each entry below is paired with its result.
# compound, group
measured = [
    ("CCOC(=O)c1nn(C2CCCCO2)c2ccc(NC(=O)CSc3nc4ccccc4c(=O)[nH]3)cc12 (stereo not given)", "label 0"),
    ("O=C(Nc1ccc(F)cc1)c1ccccc1", "label 0"),
    ("Cc1cc(SC#N)ncn1", "label 0"),
    ("N=C(N)c1ccc(-c2ccc(-c3ccc(-c4cccs4)s3)s2)cc1F", "label 0"),
    ("COc1ccc(C2CC(c3ccc4ccccc4c3)=NN2c2nc(O)c(C3=c4cc(OC)ccc4=NC3=O)s2)cc1 (stereo not given)", "label 1"),
    ("O=C(COc1cccc(/C=C2\\Oc3ccccc3C2=O)c1)c1ccc([N+](=O)[O-])cc1", "label 0"),
]

Turning to the following compound.
Q: Can you look up the reported call for c1ccc(-c2nnc(-c3c[nH]c4ncccc34)s2)cc1 for me?
Result: label 0

---

# Test system: SF-295 CNS
# testSummary: NCI-60 one-dose screen, 48 h
# conditionSet: 10 µM unless noted
Compounds without any hit were thinned out: in the full panel of roughly 83,000, 20% have a hit. Active and inactive are the calls of the source. How the source made its calls: active means growth percent below 10; inactive means the rest.
Give your call using only these classes: active, inactive

Past entries and their recorded results:
# compound, group
data = [
    ("COc1cc(NCc2ccccc2O)c2ncccc2c1", "inactive"),
    ("C=C(C)[C@@H]1CC[C@]2(C)[C@H](CC[C@@H]3[C@@H]([C@@](C)(O)CCC=C(C)C)CC[C@]32C)[C@@]1(C)CCC(=O)O", "active"),
]

Q: // param item: Cc1cc(SC#N)ncn1 ; yields the recorded call
Result: inactive

---

# System: MDA-MB-231 breast
# testSummary: NCI-60 one-dose screen, 48 h (100 = growth as untreated, 0 = no growth, -100 = all killed)
# conditionSet: 10 µM unless noted
About 83,000 compounds went through this panel and 20% of them were active in at least one assay; those are over-represented in the sample as a whole.
measurementKind: growth (%)
Answers are plain numbers, in %.

Please review the entries below; each comes with its answer.
# compound, experimentalValue
data = [
    ("CCN(CC)c1ccc2cc(C(Nc3ccc(Cl)cc3)c3nnnn3C(C)(C)C)c(=O)oc2c1 (stereo not given)", 90.8),
    ("CC1Cc2ccc(OCCN(C)C)cc2C1=O (stereo not given)", 112),
    ("COc1ccc(-c2cc(-c3ccc(Cl)cc3)nc(SCCCCCCC(=O)NO)n2)cc1", 45.8),
    ("CCCn1ccnc1C(O)c1ccc(OCc2ccccc2)c(OC)c1 (stereo not given)", 93.7),
]

For the next question, use this compound.
Q: Note down growth recorded for COc1ccc(-c2cc(-c3ccccc3)nc(NCCNc3ccnc4cc(Cl)ccc34)n2)cc1
Result: -89.8
